Target: T1, human ASCL1 (Achaete-scute homolog 1) (human, UniProt P50553 1-236)
T1 construct: also called hASCL1; immobilized human ASCL1
T1 sequence: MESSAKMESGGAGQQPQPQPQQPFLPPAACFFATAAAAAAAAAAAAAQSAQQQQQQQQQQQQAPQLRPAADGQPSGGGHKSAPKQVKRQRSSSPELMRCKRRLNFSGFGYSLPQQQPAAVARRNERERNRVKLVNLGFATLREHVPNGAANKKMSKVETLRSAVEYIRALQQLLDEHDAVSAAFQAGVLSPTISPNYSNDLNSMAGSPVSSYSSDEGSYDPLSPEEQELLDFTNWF
Test: screening of Example 2 (ELISA) or cells
MEASURED_PROPERTY: binding result

INSERT INTO results (binder, measured_property, test_value) VALUES
  ('SC72.94 (antibody, V domains shown, Murine monoclonal antibody from a hybridoma; light chain amplified with kappa primers) VH: QVQLQQPGTELVKPGASVKLSCKASAYTFTSLWIHWVKQRPGQGLEWIGDINPSIGDTYYNERFKSKATLTVDKSSSTAYMQLSSLTSEDSAVYYCTTGDSWGQGTTLTVSS VL: DIQMNQSPSSLSASLGDTITITCRASQGISIWLSWYQQKPGNIPKLLIYKASNLHTGVPPSFSGSGSGTDFTLTISSLQPEDIATYYCLQSQSYPWTFGGGTKLEIK', 'binding result', 'binds'),
  ('SC72.91 (antibody, V domains shown, Murine monoclonal antibody from a hybridoma; light chain amplified with kappa primers) VH: QVQLQQSGPEVVKPGASVKLSCKASGYTFTTYDINWVKQRPGQGLEWIGWIYFRDGTNKYNEKFKGKATLTVDTSSSTAYMELHSLTSEDSAVYFCASVYDGYYVSGFDIMDYWGQGTSVTVSS VL: DVVLTQTPLSLPVSLGDQASIYCRSSQSIVHSNGNTYFEWYLQKPGQSPKLLIYKVSNRLSGVPDRFSGSGSGTDFTLKISRVEAVDLGIYYCFQASHVPFTFGAGTKLELK', 'binding result', 'binds');
